Tested on: HONE-1 cells
Experiment: Clonogenic assay, HONE-1
Assay type: cell-based, Human
Conditions: Homo sapiens, HONE1; HONE-1, oral, p53 mutant, MDR1 negative; read-out: IC50, anti-proliferative activity
Kindly state pIC50 for each of the entries shown.
On this scale, pIC50 is minus log10 of a concentration expressed in M (mol/L).

[in] Which measured pIC50 value corresponds to Cc1cc(Nc2cc(N3CCN(C)CC3)nc(Sc3ccc(NC(=O)C4CC4)cc3)n2)[nH]n1 ?
[out] 7.70

[in] Value lookup for pIC50; key = CO[C@@H](C(=O)N1Cc2n[nH]c(NC(=O)c3ccc(N4CCN(C)CC4)cc3)c2C1)c1ccccc1
[out] 7.23

[in] Quick one: pIC50 of CN(C)Cc1ccccc1NC(=O)Nc1ccc(CCNc2ncnc3oc(-c4ccccc4)c(Cl)c23)cc1 ?
[out] 7.96

----------
Consider the following compounds; for each one, report its pIC50.
Test system: KB cells
Assay: Clonogenic assay, KB
Assay type: cell-based, Human
Details: Homo sapiens, cervical, p53 wild-type, MDR1 negative (parental), read-out: IC50, anti-proliferative activity
Keep it numeric: pIC50 is minus log10 of the concentration in mol/L.

[in] So what pIC50 did Cc1cc(Nc2cc(N3CCN(C)CC3)nc(Sc3ccc(NC(=O)C4CC4)cc3)n2)[nH]n1 get with KB cells?
[out] 7.07

[in] Any idea what pIC50 came out for CO[C@@H](C(=O)N1Cc2n[nH]c(NC(=O)c3ccc(N4CCN(C)CC4)cc3)c2C1)c1ccccc1 on KB cells?
[out] 6.40

[in] Recorded pIC50 for CN(C)Cc1ccccc1NC(=O)Nc1ccc(CCNc2ncnc3oc(-c4ccccc4)c(Cl)c23)cc1 with KB cells, please?
[out] 7.92

----------
Test system: KB-VIN10 cells
Experiment: Clonogenic assay, KB-VIN10
Assay type: cell-based, Human
Details: Homo sapiens; KB-VIN10, vincristine resistant, MDR1 ↑; read-out: IC50, anti-proliferative activity
For each record, write down the corresponding IC50.

[in] Quick one: IC50 for CO[C@@H](C(=O)N1Cc2n[nH]c(NC(=O)c3ccc(N4CCN(C)CC4)cc3)c2C1)c1ccccc1 ?
[out] > 25000 nM

[in] Which IC50 is listed for Cc1cc(Nc2cc(N3CCN(C)CC3)nc(Sc3ccc(NC(=O)C4CC4)cc3)n2)[nH]n1 ?
[out] 1400 nM

[in] Would you kindly share the measured IC50 for CN(C)Cc1ccccc1NC(=O)Nc1ccc(CCNc2ncnc3oc(-c4ccccc4)c(Cl)c23)cc1 ?
[out] 14 nM

----------
Molecular target: UniProt:Q9UM73
Sequence (Q9UM73 1058-1620): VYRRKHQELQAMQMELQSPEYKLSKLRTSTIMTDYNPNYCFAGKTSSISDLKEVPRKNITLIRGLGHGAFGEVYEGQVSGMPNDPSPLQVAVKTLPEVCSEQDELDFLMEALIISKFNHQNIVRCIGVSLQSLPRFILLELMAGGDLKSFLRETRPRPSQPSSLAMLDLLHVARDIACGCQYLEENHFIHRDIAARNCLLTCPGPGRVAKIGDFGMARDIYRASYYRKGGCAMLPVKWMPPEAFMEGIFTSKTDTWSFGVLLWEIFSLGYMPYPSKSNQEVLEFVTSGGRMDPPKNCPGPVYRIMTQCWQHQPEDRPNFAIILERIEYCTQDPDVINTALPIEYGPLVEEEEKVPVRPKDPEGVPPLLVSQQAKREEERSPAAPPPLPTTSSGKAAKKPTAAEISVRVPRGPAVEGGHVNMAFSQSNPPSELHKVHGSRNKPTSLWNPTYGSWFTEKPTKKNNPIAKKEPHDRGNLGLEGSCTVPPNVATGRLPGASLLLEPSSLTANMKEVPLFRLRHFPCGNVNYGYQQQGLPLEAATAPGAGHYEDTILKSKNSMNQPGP
Measured attribute: IC50

[in] Quick one: IC50 of CN(C)Cc1ccccc1NC(=O)Nc1ccc(CCNc2ncnc3oc(-c4ccccc4)c(Cl)c23)cc1 ?
[out] > 10 µM

----------
Assay: Pharmacokinetic study in rats
Type: in vivo
Settings: male, Sprague-Dawley, rat, plasma, iv, 5 mg/kg i.v., read-out: Total body clearance (CL)
Measured attribute: clearance (mL/min/kg)
Write it as a number; the unit mL/min/kg goes unstated.

[in] Quick one: clearance of CN(C)Cc1ccccc1NC(=O)Nc1ccc(CCNc2ncnc3oc(-c4ccccc4)c(Cl)c23)cc1 ?
[out] 49.3

----------
Measured attribute: IC50 (nM)
Write the value in nM as a bare number.

[in] What is its IC50 for CHK2 (Homo sapiens, UniProt O96017)? Entry: CN(C)Cc1ccccc1NC(=O)Nc1ccc(CCNc2ncnc3oc(-c4ccccc4)c(Cl)c23)cc1
[out] 2300

----------
Assay: Pharmacokinetic study in rats
Type: in vivo
Conditions: male, Sprague-Dawley, rat, plasma, iv, 5 mg/kg i.v., read-out: Area under the curve (AUC(0-inf))
Measured attribute: AUC(0-inf) (ng·h/mL)
Number only, in ng·h/mL; omit the unit.

[in] Query: AUC(0-inf); subject: CN(C)Cc1ccccc1NC(=O)Nc1ccc(CCNc2ncnc3oc(-c4ccccc4)c(Cl)c23)cc1
[out] 1750

----------
Target: EGFR (Homo sapiens, UniProt P00533)
Sequence (P00533 696-1022): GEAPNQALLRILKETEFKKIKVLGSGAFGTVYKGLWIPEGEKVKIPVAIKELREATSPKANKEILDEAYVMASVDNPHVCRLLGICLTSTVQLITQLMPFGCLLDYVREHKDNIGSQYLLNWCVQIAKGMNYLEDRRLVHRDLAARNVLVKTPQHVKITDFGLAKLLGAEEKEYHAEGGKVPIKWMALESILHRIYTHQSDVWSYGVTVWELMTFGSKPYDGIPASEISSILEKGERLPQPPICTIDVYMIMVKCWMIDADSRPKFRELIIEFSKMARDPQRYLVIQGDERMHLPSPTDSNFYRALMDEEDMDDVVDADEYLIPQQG
pIC50: −log10 of the molar value.
Measured attribute: pIC50

[in] Any idea what its pIC50 is? The compound is CN(C)Cc1ccccc1NC(=O)Nc1ccc(CCNc2ncnc3oc(-c4ccccc4)c(Cl)c23)cc1
[out] < 5.00

----------
Target: Aurora-A (Homo sapiens)
Construct: GST-tagged Aurora-A (residues S123-S401) containing kinase domain; GST; made in house; host or cells: Sf9 insect cells
Sequence (O14965 123-401): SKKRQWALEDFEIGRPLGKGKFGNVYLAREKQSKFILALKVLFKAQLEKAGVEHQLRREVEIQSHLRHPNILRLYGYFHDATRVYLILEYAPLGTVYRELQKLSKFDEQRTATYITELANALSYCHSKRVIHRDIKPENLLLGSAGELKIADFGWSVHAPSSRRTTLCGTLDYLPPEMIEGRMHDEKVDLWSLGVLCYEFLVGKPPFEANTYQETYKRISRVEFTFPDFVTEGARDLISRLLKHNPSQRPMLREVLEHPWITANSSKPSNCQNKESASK
Assay: In vitro kinase inhibition assay, Aurora-A
Format: biochemical
Conditions: recombinant GST-tagged Aurora-A, 37°C, 90 min
Procedure: Aurora-A and Aurora-B kinase - The recombinant GST-tagged Aurora-A (residues S123-S401) containing kinase domain was expressed in Sf9 insect cells. The recombinant full length His-tagged Aurora-B (residues M1∼A344) was purchased from Invitrogen (PV3970). The kinase assay were carried out in 96-well plates with the tested compound at either 37°C (Aurora-A) for 90 min or 30°C (Aurora-B) for 120 min. […]
Measured attribute: IC50

[in] Value lookup for IC50; key = CN(C)Cc1ccccc1NC(=O)Nc1ccc(CCNc2ncnc3oc(-c4ccccc4)c(Cl)c23)cc1
[out] 124 nM

----------
System: MV4-11 cells
Test: Clonogenic assay, MV4-11
Assay type: cell-based, Human
Conditions: Homo sapiens; MV4-11, leukemia, p53 mutant, MDR1 negative; read-out: IC50, anti-proliferative activity
Record form. Attribute: IC50. Fill in for each entry.
In your response, put the unit directly after the numeric value.

[in] Requested read-out: IC50. Entry: CO[C@@H](C(=O)N1Cc2n[nH]c(NC(=O)c3ccc(N4CCN(C)CC4)cc3)c2C1)c1ccccc1
[out] 86 nM

[in] Suppose we examine the compound Cc1cc(Nc2cc(N3CCN(C)CC3)nc(Sc3ccc(NC(=O)C4CC4)cc3)n2)[nH]n1 ; what IC50 value has been reported?
[out] 15 nM

[in] Any idea what IC50 was measured for CN(C)Cc1ccccc1NC(=O)Nc1ccc(CCNc2ncnc3oc(-c4ccccc4)c(Cl)c23)cc1 ?
[out] 5 nM
